molecular target: Porcine Ventricle myofibrils (left ventricle of Yucatan minipigs) (Sus scrofa); construct: Myofibrils from porcine cardiac muscle was isolated from the left ventricle of Yucatan minipigs; tissue Exemplar Genetics; host or cells: left ventricle of Yucatan minipigs; assay: Myofibril ATPase assay (PK/LDH NADH-coupled), ventricle myofibrils; type: biochemical; conditions: Table 8
Sequence (P79293 whole entry): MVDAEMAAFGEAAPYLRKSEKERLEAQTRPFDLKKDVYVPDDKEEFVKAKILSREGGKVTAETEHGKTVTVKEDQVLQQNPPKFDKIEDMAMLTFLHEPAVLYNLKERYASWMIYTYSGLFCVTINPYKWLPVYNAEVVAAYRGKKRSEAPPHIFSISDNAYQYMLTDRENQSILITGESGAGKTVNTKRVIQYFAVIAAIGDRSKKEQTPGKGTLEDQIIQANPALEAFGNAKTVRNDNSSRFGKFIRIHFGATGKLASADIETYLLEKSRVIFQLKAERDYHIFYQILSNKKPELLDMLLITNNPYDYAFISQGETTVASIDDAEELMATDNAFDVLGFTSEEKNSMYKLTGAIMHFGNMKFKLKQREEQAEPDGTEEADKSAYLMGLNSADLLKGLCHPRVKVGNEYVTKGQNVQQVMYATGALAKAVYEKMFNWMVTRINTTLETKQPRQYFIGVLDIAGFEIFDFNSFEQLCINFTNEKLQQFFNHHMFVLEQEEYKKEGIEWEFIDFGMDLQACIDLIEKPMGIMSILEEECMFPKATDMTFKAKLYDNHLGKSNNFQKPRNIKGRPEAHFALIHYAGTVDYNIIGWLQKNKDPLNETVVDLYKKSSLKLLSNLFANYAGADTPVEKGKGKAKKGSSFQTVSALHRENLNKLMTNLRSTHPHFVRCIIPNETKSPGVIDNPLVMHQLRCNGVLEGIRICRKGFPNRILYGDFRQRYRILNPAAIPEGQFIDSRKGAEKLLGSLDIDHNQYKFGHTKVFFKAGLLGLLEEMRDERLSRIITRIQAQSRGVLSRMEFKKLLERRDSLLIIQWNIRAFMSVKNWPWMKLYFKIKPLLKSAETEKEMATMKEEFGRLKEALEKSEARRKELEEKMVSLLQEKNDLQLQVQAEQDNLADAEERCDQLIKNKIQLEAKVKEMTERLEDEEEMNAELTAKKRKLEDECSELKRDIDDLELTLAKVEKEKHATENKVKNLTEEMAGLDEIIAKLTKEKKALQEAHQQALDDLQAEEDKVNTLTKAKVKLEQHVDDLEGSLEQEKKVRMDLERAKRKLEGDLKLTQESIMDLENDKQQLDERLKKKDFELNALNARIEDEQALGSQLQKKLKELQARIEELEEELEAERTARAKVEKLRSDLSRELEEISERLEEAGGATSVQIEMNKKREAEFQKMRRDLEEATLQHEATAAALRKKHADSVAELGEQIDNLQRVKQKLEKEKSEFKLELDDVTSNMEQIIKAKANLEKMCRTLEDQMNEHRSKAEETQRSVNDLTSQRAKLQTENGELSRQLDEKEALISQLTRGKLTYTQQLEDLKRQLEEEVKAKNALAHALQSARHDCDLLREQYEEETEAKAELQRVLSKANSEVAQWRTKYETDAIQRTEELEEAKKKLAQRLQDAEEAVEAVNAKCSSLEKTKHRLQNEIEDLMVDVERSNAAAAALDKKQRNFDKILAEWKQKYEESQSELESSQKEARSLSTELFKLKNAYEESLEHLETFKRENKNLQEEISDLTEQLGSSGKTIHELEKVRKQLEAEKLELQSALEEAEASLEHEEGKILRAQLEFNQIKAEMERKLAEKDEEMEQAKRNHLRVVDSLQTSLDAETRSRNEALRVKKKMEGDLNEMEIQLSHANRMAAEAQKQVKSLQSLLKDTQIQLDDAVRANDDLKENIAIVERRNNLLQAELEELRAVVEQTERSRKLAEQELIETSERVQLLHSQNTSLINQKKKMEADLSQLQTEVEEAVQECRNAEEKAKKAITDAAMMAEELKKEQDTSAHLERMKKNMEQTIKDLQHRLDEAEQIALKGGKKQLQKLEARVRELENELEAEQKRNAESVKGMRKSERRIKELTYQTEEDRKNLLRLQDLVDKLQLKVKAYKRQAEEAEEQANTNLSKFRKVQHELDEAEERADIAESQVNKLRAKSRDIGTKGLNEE
observed.property: Porcine Ventricle IC25 (µM)
API: value field is a number in µM; no unit string.

Cc1nc(C#N)cnc1C(C)NC(=O)CN1Cc2c(ccc(F)c2F)NC1=O (single isomer, unassigned); 0.0533
C[C@H](NC(=O)CN1Cc2c(ccc(F)c2F)NC1=O)c1ncncc1F; 0.5595
N#Cc1cnc2c(c1)OC[C@@H]2NC(=O)CN1C(=O)Nc2ccc(F)c(F)c2C12CC2; 0.06
C[C@@H](NC(=O)CN1Cc2cc(C#N)ccc2NC1=O)c1ncc(F)cc1F; 100
N#Cc1cc(F)c2c(c1)OC[C@@H]2NC(=O)CN1Cc2c(ccc(F)c2C#N)NC1=O; 0.11
C[C@@H](NC(=O)CN1Cc2cc(CN(C)C)ccc2NC1=O)c1ncc(C#N)cc1F; 100.00
Cc1cnc([C@H](C)NC(=O)CN2Cc3cc(F)ccc3NC2=O)c(F)c1; 100
Cc1ncnc([C@@H](C)NC(=O)CN2Cc3c(ccc(F)c3F)NC2=O)c1F; 100.00
C[C@H](NC(=O)CN1Cc2c(C#N)cccc2NC1=O)c1ccc(C#N)cn1; 0.6721
Cc1cccnc1[C@H](C)NC(=O)CN1Cc2cc(F)ccc2NC1=O; 40.61

Exercise: Query the reported Porcine Ventricle IC25 for Porcine Ventricle myofibrils (left ventricle of Yucatan minipigs) (Sus scrofa); item: N#Cc1cc(F)c2c(c1)OC[C@@H]2NC(=O)CN1C(=O)Nc2ccc(F)c(F)c2C12CC2
Solution: 0.24

Exercise: Query the reported Porcine Ventricle IC25 for Porcine Ventricle myofibrils (left ventricle of Yucatan minipigs) (Sus scrofa); item: C[C@@H](NC(=O)CN1Cc2cc(F)ccc2NC1=O)c1ncccc1F
Solution: 100

Exercise: Query the reported Porcine Ventricle IC25 for Porcine Ventricle myofibrils (left ventricle of Yucatan minipigs) (Sus scrofa); item: C[C@@H](NC(=O)[C@H](C)N1Cc2c(ccc(F)c2F)NC1=O)c1ncc(C#N)cc1F
Solution: 0.75

Exercise: Query the reported Porcine Ventricle IC25 for Porcine Ventricle myofibrils (left ventricle of Yucatan minipigs) (Sus scrofa); item: O=C(CN1Cc2cc(F)ccc2NC1=O)N[C@H]1COc2cc(F)cc(F)c21
Solution: 68.33

Exercise: Query the reported Porcine Ventricle IC25 for Porcine Ventricle myofibrils (left ventricle of Yucatan minipigs) (Sus scrofa); item: C[C@@H](NC(=O)CN1Cc2c(ccc(F)c2F)NC1=O)c1ccc2ncccc2n1
Solution: 8.79

Exercise: Query the reported Porcine Ventricle IC25 for Porcine Ventricle myofibrils (left ventricle of Yucatan minipigs) (Sus scrofa); item: N#Cc1cnc2c(c1)CC[C@@H]2NC(=O)CN1Cc2c(ccc(F)c2F)NC1=O
Solution: 100

###

target: Porcine Ventricle myofibrils (left ventricle of Yucatan minipigs) (Sus scrofa); construct: Myofibrils from porcine cardiac muscle was isolated from the left ventricle of Yucatan minipigs; tissue Exemplar Genetics; host or cells: left ventricle of Yucatan minipigs; test: Myofibril ATPase assay (PK/LDH NADH-coupled), ventricle myofibrils; format: biochemical; details: Table 7
The entries below are paired with their reported Porcine Ventricle IC25.
Enter the number, and then the unit.

N#Cc1ccc([C@H](CO)NC(=O)CN2C(=O)Nc3cccnc3C23CC3)c(F)c1; 4.582 µM
C[C@H](NC(=O)CN1Cc2nc(F)ccc2NC1=O)c1ncc(F)cc1F; 100 µM
C[C@H](NC(=O)[C@@H](C)N1Cc2nc(F)ccc2NC1=O)c1ccc(F)cc1; 100 µM
COc1ccc2c(n1)CN(CC(=O)N[C@@H](C)c1ccc(F)cc1F)C(=O)N2; 3.289 µM
C[C@@H](NC(=O)CN1Cc2c(ccnc2C#N)NC1=O)c1ccc(C#N)cc1F; 100 µM
C[C@@H](NC(=O)CN1C(=O)Nc2ccc(C#N)nc2C12CC2)c1ccc(F)cc1F; 100 µM

Exercise: Given the molecule C[C@@H](NC(=O)CN1C(=O)Nc2ccc(C#N)nc2C12CC2)c1ncc(F)cc1F , what is its reported Porcine Ventricle IC25?
Solution: 100 µM

Exercise: Given the molecule CC(C)Oc1nccc2c1CN(CC(=O)N[C@@H](C)c1ccc(F)cc1F)C(=O)N2 , what is its reported Porcine Ventricle IC25?
Solution: 27.23 µM

Exercise: Given the molecule C[C@H](NC(=O)[C@@H](C)N1Cc2nc(C#N)ccc2NC1=O)c1ccc(F)cc1F , what is its reported Porcine Ventricle IC25?
Solution: 100 µM

Exercise: Given the molecule C[C@H](NC(=O)CN1C(=O)Nc2ccc(C#N)nc2C12CC2)c1ccc(F)cc1F , what is its reported Porcine Ventricle IC25?
Solution: 0.8569 µM

Exercise: Given the molecule N#Cc1ccc([C@@H](CO)NC(=O)CN2C(=O)Nc3cccnc3C23CC3)c(F)c1 , what is its reported Porcine Ventricle IC25?
Solution: 25.16 µM

Exercise: Given the molecule C[C@H](NC(=O)CN1Cc2cnccc2NC1=O)c1ccc(F)cc1F , what is its reported Porcine Ventricle IC25?
Solution: 13.9 µM

Exercise: Given the molecule C[C@@H](NC(=O)CN1Cc2cnccc2NC1=O)c1ccc(C#N)cc1F , what is its reported Porcine Ventricle IC25?
Solution: 100 µM

Exercise: Given the molecule O=C(CN1Cc2c(ccnc2Cl)NC1=O)N[C@H](c1ccc(F)cc1F)C(F)(F)F , what is its reported Porcine Ventricle IC25?
Solution: 1.94 µM

Exercise: Given the molecule Cc1cc(F)ccc1[C@H](C)NC(=O)CN1Cc2cnccc2NC1=O , what is its reported Porcine Ventricle IC25?
Solution: 97.09 µM

Exercise: Given the molecule N#Cc1nccc2c1CN(CC(=O)N[C@@H](CO)c1ccc(F)cc1F)C(=O)N2 , what is its reported Porcine Ventricle IC25?
Solution: 2.357 µM

Exercise: Given the molecule C[C@H](NC(=O)[C@H](C)N1Cc2c(ccnc2C(F)(F)F)NC1=O)c1ccc(F)cc1F , what is its reported Porcine Ventricle IC25?
Solution: 49.28 µM
